These data points were gathered from patent US20230286970A1.

Biological target: recombinant human HDAC6 (Homo sapiens (Human), UniProt Q9UBN7)
Sequence (Q9UBN7 whole entry): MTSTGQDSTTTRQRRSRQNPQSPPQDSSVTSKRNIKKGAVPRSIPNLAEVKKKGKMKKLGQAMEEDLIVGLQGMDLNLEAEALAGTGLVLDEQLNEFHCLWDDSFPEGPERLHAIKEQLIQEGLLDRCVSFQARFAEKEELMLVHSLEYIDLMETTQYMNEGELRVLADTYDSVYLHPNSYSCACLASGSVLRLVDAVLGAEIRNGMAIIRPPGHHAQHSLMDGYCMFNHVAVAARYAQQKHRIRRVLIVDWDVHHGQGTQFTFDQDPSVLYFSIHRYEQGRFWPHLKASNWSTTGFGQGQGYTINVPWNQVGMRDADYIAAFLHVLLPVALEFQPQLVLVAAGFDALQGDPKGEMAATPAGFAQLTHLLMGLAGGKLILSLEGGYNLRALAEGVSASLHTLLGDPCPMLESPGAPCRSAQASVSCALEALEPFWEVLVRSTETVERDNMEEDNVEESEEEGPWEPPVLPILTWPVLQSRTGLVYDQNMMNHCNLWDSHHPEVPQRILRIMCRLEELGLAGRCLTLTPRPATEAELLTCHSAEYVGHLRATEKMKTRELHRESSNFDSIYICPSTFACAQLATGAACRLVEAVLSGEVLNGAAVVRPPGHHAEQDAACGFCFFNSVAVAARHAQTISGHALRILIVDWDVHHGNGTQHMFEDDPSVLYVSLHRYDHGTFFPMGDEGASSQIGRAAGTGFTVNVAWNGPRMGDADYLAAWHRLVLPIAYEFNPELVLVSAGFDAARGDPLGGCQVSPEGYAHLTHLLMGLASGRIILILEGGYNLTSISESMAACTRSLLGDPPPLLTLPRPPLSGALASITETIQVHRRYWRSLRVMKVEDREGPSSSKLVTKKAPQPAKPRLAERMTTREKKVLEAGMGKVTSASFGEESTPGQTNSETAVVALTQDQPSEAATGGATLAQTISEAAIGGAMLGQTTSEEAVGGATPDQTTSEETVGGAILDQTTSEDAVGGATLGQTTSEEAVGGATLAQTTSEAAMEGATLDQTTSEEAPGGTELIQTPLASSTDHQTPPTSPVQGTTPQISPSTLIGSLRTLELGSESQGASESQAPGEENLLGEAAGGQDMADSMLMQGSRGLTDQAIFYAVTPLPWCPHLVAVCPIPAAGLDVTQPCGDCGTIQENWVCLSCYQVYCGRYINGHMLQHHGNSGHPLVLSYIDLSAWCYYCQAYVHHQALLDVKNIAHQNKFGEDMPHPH
Assay: Enzymatic screening, HDAC6 inhibition (fluorogenic FdL_G substrate)
Measured Attribute: pIC50
Scale note: pIC50 = -log10(concentration in M).

Answered cases to consult:
COc1ccccc1-c1cn(Cc2ccc(-c3nnc(C(F)F)o3)cc2)nn1; 6.70
CCNc1nc2ccc(-c3cn(Cc4ccc(-c5nnc(C(F)F)o5)cn4)nn3)cc2[nH]1; 8.10
Nc1ccc(-c2cn(Cc3ccc(-c4nnc(C(F)F)o4)cc3F)nn2)cn1; 7.68
COc1ncc(NCc2ccc(-c3cn(Cc4c(F)cc(-c5nnc(C(F)F)o5)cc4F)nn3)cc2)cc1C(N)=O; 7.17
COc1ncccc1-c1cn(Cc2ccc(-c3nnc(C(F)F)o3)cc2)nn1; 7.29

What measured pIC50 is associated with `NC(=O)c1ccc(-c2nnn(Cc3ccc(-c4nnc(C(F)F)o4)cc3)n2)cc1` on recombinant human HDAC6 (Homo sapiens (Human), UniProt Q9UBN7)?
7.36

What measured pIC50 is associated with `FC(F)c1nnc(-c2ccc(Cn3nnc(-c4ccc(N5CCNCC5)cc4)n3)cc2)o1` on recombinant human HDAC6 (Homo sapiens (Human), UniProt Q9UBN7)?
7.41

What measured pIC50 is associated with `FC(F)c1nnc(-c2ccc(Cn3nnc(-c4cccs4)n3)cc2)o1` on recombinant human HDAC6 (Homo sapiens (Human), UniProt Q9UBN7)?
6.74
